test system: SN12C; experiment: NCI tumour cell line growth inhibition, 48 h
Active and inactive are the calls of the source. Cut-off read from the data, not from the text of the source: active = GI50 up to about 1.1 µM and inactive = higher.
readout name: GI50

Please fill in: GI50 reported for N#Cc1ccc(/C=C(/C(=O)c2ccccc2)c2ccccc2)cc1 = 9.66 µM (inactive)

Please fill in: GI50 reported for COc1ccc(OC)c(CC(C)N)c1 (stereo unspecified) = > 100 µM (inactive)

Please fill in: GI50 reported for CCOC(=O)c1ccc(/N=c2/[nH]c3ccccc3s/c2=N/c2ccc(C(=O)OCC)cc2)cc1 = > 100 µM (inactive)

Please fill in: GI50 reported for COc1cccc(NC(=O)CC(=O)N2N=C(N(CCC#N)c3ccccc3C)CC2c2ccccc2)c1 (stereo unspecified) = > 100 µM (inactive)

Please fill in: GI50 reported for Nc1c(-c2nc3ccccc3[nH]2)sc(=S)n1-c1ccc(Cl)cc1 = 21.4 µM (inactive)

Please fill in: GI50 reported for CN1CCN(CN2C(=O)C3C4C=CC(C3C2=O)C2C3C(=O)N(CN5CCN(C)CC5)C(=O)C3C42)CC1 (stereo unspecified) = 22.5 µM (inactive)

Please fill in: GI50 reported for OCC(O)COc1ccc(F)cc1 (stereo unspecified) = > 100 µM (inactive)

Please fill in: GI50 reported for O=[N+]([O-])c1nccn1CC(O)CN1CCCCC1 (stereo unspecified) [PIMONIDAZOLE] = > 100 µM (inactive)

Please fill in: GI50 reported for CC(O)C1(CNc2cc(Cl)nc(N)n2)CCCCC1 (stereo unspecified) = 82.6 µM (inactive)

Please fill in: GI50 reported for CCOC(=O)[C@@H]1ON2O[C@H](OC3CCCCC3c3ccccc3)C[C@H]3OC(=O)[C@@H]1C32 (stereo partly specified) = > 100 µM (inactive)

Please fill in: GI50 reported for CC(C)(C)c1ccnc(/N=C2\N/C(=N\c3cc(C(C)(C)C)ccn3)c3ccccc32)c1 = > 100 µM (inactive)

Please fill in: GI50 reported for CC(C)(C)C1CCC2c3c([nH]c4ccccc34)C3C(=O)N(c4cc(Br)cc(Br)c4)C(=O)C3C2C1 (stereo unspecified) = 6.82 µM (inactive)

Please fill in: GI50 reported for Nc1c(Cl)ncnc1N[C@@H]1C[C@H]1CO = > 100 µM (inactive)

Please fill in: GI50 reported for NNC(=O)CSc1nc2ccc(I)cc2c(=O)n1Cc1ccccc1 = 21.3 µM (inactive)

Please fill in: GI50 reported for Oc1ccc([C@H]2c3c(O)cc(O)cc3C3c4c(cc(O)cc4[C@@H]2[C@H]2c4cc(O)cc5c4C(c4cc(O)cc(O)c4[C@@H]2c2ccc(O)cc2)[C@@H](c2ccc(O)cc2)O5)O[C@@H]3c2ccc(O)cc2)cc1 (stereo partly specified) = > 100 µM (inactive)

Please fill in: GI50 reported for CN(C)C(=S)/N=c1\ss/c(=N\S(=O)(=O)c2ccccc2)n1C = > 100 µM (inactive)

Please fill in: GI50 reported for COc1cc2oc(=O)cc(C)c2cc1[N+](=O)[O-] = 16.4 µM (inactive)

Please fill in: GI50 reported for O=C1c2ccccc2C(=O)c2c1ccc1c2N=C(c2ccc(Br)cc2)CC(c2cccc3ccccc23)N1 (stereo unspecified) = > 100 µM (inactive)

Please fill in: GI50 reported for C[n+]1c2ccccc2c(CNC(CS)C(=O)O)c2ccccc21 (stereo unspecified) = 30.5 µM (inactive)

Please fill in: GI50 reported for Brc1ccc(-c2cc(-c3ccc4c(c3)OCO4)c(-c3cccs3)n2Cc2ccccc2)cc1 = > 100 µM (inactive)

Please fill in: GI50 reported for COc1ccc2nc3ccc(OC)cc3c(SCc3ccccc3)c2c1 = > 100 µM (inactive)

* * *

system: SW-620; assay: NCI tumour cell line growth inhibition, 48 h
Activity calls are given as the source filed them. Cut-off read from the data, not from the text of the source: active = GI50 up to about 1.1 µM and inactive = higher.
Answer with one of the outcomes given here: class 1 (active), class 0 (inactive)

What is the recorded call for this molecule in the test? CC1=C/C(=N\NC(N)=S)C(C(O)(C(F)(F)F)C(F)(F)F)C(C)(C)C1 (configuration not stated)
class 0

What is the recorded call for this molecule in the test? N#Cc1c2ccc([N+](=O)[O-])cc2c(=O)n2c1sc1ccccc12
class 0

What is the recorded call for this molecule in the test? O=C1CC2(CCC3=C(O2)c2ccccc2NC(=O)C3)C(=O)c2ccccc2N1 (configuration not stated)
class 0

What is the recorded call for this molecule in the test? Cc1cn([C@H]2CN(O)C[C@@H](CO)O2)c(=O)[nH]c1=O
class 0

What is the recorded call for this molecule in the test? CC(N)Cc1ccc(C(=O)Cl)cc1 (configuration not stated)
class 0

What is the recorded call for this molecule in the test? O=C(C(=O)n1ccc2ccccc21)c1c[nH]c2ccccc12
class 0

What is the recorded call for this molecule in the test? O=[N+]([O-])c1nccn1CC(O)CN1CCCCC1 (configuration not stated)
class 0

What is the recorded call for this molecule in the test? O=C1c2ccccc2C(=O)c2c1ccc1c2N=C(c2ccc(Br)cc2)CC(c2cccc3ccccc23)N1 (configuration not stated)
class 0

What is the recorded call for this molecule in the test? COC(=O)c1ccccc1C1CN=NC12Cc1ccc3c(c1C2=O)CCC3 (configuration not stated)
class 0

What is the recorded call for this molecule in the test? COc1ccc(OC)c(C2CCc3c(cnc4nc(N)nc(N)c34)C2)c1 (configuration not stated)
class 0

What is the recorded call for this molecule in the test? N#CC1(O)CCCCCCCCCCC1
class 0

What is the recorded call for this molecule in the test? C=C1CCC(OC(C)=O)C2(C)C(OC(C)=O)CC3OC3(C)C2C(OC(C)=O)C2C(C)C(=O)OC2C1Cl (configuration not stated)
class 0

What is the recorded call for this molecule in the test? O=C1/C(=C2/CCCN2)C(c2ccc[nH]2)=NN1c1ccccc1
class 0

What is the recorded call for this molecule in the test? C[C@H]1C[C@H](C)c2ccccc2N(C)/C1=N\c1ccccc1
class 0

What is the recorded call for this molecule in the test? CC(C)CCCC(C)[C@H]1CCC2[C@@H]3CCC4Nc5nocc5C[C@]4(C)C3CC[C@@]21C (some centres not stated)
class 0

What is the recorded call for this molecule in the test? CCOC(=O)N1C(c2ccccc2)C=CC(c2ccccc2)N1C(=O)OCC (configuration not stated)
class 0

What is the recorded call for this molecule in the test? Cc1sc2nc3n(c(=O)c2c1C)N=CN(c1ccc(F)cc1)C3
class 0

What is the recorded call for this molecule in the test? O=C(O)C12C3C4(C(=O)O)C1C1(C(=O)O)C2C3(C(=O)O)C41 (configuration not stated)
class 0

What is the recorded call for this molecule in the test? C[C@]12CCC(=O)C(OC(=O)c3ccc([N+](=O)[O-])cc3)=C1CCC2=O
class 0

What is the recorded call for this molecule in the test? Oc1c(C(Nc2ccccn2)c2ccccc2)ccc2cccnc12 (configuration not stated)
class 0

What is the recorded call for this molecule in the test? COc1ccc2c(c1)CCC/C2=N\NS(=O)(=O)c1c(C)cc(C)cc1C
class 0

What is the recorded call for this molecule in the test? C#CC1(O)CCC2C3CCc4cc(Oc5nc(F)nc(-c6c7ccccc7c7n6CCS7)n5)ccc4C3CC[C@@]21C (some centres not stated)
class 0

What is the recorded call for this molecule in the test? COc1cc(/C=C(\NC(=O)c2ccccc2)c2nc3cc([N+](=O)[O-])ccc3[nH]2)cc(OC)c1OC
class 0

What is the recorded call for this molecule in the test? COC1=C2CC(C)CC(OC)C(OC(=O)CCCN)C(C)/C=C(\C)C(OC(N)=O)C(OC)/C=C\C=C(/C)C(=O)NC(=CC1=O)C2=O (configuration not stated)
class 1

What is the recorded call for this molecule in the test? Cc1cc(S(=O)(=O)Nc2nnc3ccccn23)c(S)cc1Cl
class 0

What is the recorded call for this molecule in the test? COc1ccccc1-c1c(C#N)c(N)[nH]c(=S)c1C#N
class 0

What is the recorded call for this molecule in the test? COc1ccc2c(c1O)C(=O)C(CCC(=O)O)CC2 (configuration not stated)
class 0

What is the recorded call for this molecule in the test? N#C/C(=C\c1ccccc1O)C(N)=O
class 0

What is the recorded call for this molecule in the test? CN1CCN(CC(=O)Nc2cccc3ccccc23)CC1
class 0

What is the recorded call for this molecule in the test? NNC(=O)c1ccc[n+](CCc2ccccc2)c1
class 0

What is the recorded call for this molecule in the test? COC(=O)[C@@H]1[C@H](O)CCC2=C(CC(=O)c3ccoc3)[C@H](C)CC[C@]21C
class 0

What is the recorded call for this molecule in the test? C#CCOC(=O)C(N)CSSCC(N)C(=O)O (configuration not stated)
class 0

What is the recorded call for this molecule in the test? COC1C(OC(=O)c2ccc(C)[nH]2)C(O)C(Oc2ccc3c(O)c(NC(=O)c4ccc(O)c(CC=C(C)C)c4)c(=O)oc3c2Cl)OC1(C)C (configuration not stated)
class 0

What is the recorded call for this molecule in the test? O=C(NCCc1ccccc1)C1C(=O)C(=O)N(CCc2ccccc2)C1=O (configuration not stated)
class 0

What is the recorded call for this molecule in the test? COC(=O)c1cc(NC(=O)c2cc(NC(=O)Cc3c[nH]c4ccccc34)cn2C)cn1C
class 0

What is the recorded call for this molecule in the test? CCCCOCc1cc(CN2CCN(C)CC2)c(O)c2ncccc12
class 0

What is the recorded call for this molecule in the test? C[C@]12C/C(=C/O)C(=O)C(O)=C1CC[C@@H]1C2CC[C@@]2(C)C1CC[C@@H]2O (some centres not stated)
class 0

What is the recorded call for this molecule in the test? C=C1CCc2ccccc2C1=O
class 0

What is the recorded call for this molecule in the test? Cc1cc(N(CCC#N)CCC#N)ccc1/C=C/C(=O)Nc1ccccc1Cl
class 0

What is the recorded call for this molecule in the test? Cc1ccc(/N=C2\OP(=O)(Nc3ccc(C)cc3)Oc3ccccc32)cc1 (configuration not stated)
class 0

What is the recorded call for this molecule in the test? COC(=O)CCC(NC(=S)N/N=C(\C)c1cnccn1)C(=O)OC (configuration not stated)
class 0

What is the recorded call for this molecule in the test? CC1=CC(=O)c2c(O)cccc2C1=O
class 0
